The following compounds were reported with IC50 values on Fibroblast growth factor receptor 1 (Homo sapiens, UniProt P11362) in different studies.
Sequence (P11362 whole entry): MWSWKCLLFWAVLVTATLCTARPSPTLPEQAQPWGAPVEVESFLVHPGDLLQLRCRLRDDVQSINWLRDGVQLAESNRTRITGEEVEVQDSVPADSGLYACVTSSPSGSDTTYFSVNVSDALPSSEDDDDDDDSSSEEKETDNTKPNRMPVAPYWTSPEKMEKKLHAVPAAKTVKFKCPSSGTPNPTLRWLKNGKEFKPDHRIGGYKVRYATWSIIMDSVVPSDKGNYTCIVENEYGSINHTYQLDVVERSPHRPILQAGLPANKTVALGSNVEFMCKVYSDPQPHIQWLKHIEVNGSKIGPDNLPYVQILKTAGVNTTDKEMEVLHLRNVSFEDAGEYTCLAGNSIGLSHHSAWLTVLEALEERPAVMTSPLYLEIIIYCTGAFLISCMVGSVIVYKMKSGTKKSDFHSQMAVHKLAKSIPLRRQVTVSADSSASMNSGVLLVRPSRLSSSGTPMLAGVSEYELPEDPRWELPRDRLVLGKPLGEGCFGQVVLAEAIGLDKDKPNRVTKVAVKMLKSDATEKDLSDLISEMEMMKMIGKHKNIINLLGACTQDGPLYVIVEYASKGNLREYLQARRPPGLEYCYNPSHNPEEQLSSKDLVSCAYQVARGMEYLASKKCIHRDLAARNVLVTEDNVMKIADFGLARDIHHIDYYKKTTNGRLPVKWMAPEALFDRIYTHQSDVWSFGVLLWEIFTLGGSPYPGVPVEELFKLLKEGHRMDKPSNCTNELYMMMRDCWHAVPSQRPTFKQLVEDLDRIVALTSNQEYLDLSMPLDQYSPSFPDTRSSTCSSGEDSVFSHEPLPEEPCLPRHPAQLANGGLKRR
Just the number please, in nM, no unit attached.

smilesRepresentation: C=CC(=O)Nc1ccc(CN2C(=O)N(c3cc(OC)cc(OC)c3)Cc3cnc(Nc4ccccc4NC(=O)C=C)nc32)cc1
readout: IC50
unitAbbrev: nM
experimentalValue: 951

smilesRepresentation: COc1cc2nccc(Oc3ccc(NC(=O)NC4CC4)c(Cl)c3)c2cc1C(N)=O
readout: IC50
unitAbbrev: nM
experimentalValue: 27

smilesRepresentation: C=CC(=O)Nc1ccccc1Nc1cc2cnc(-c3c(Cl)c(OC)cc(OC)c3Cl)cc2cn1
readout: IC50
unitAbbrev: nM
experimentalValue: 506

smilesRepresentation: Cc1ccc(C(=O)Nc2ccc(CN3CCN(C)CC3)c(C(F)(F)F)c2)cc1C#Cc1cnc(Nc2c(C)cccc2NC(=O)/C=C/CN(C)C)nc1
readout: IC50
unitAbbrev: nM
experimentalValue: 863

Report IC50 for "C=CC(=O)Nc1cccc(C)c1Nc1ncc2cc(-c3c(Cl)c(OC)cc(OC)c3Cl)ccc2n1" please. 559

Report IC50 for "O=C1Nc2ccc(CN3C(=O)CSC3=O)cc2/C1=C/c1cc(CN2CCOCC2)c[nH]1" please. 18

Report IC50 for "C=CC(=O)N[C@H]1CCOC[C@H]1Nc1ncc2cc(-c3c(Cl)c(OC)cc(OC)c3Cl)ccc2n1" please. 1840

Report IC50 for "C=CC(=O)Nc1ccc(CCN2C(=O)N(c3cc(OC)cc(OC)c3)Cc3cnc(Nc4ccccc4NC(=O)C=C)nc32)cc1" please. 420
